# Test system: Porcine Atria myofibrils
# assay-comment: Myofibril ATPase assay (PK/LDH NADH-coupled), atria myofibrils
# Assay type: biochemical
# condition-details: Table 8

compound	subject-of-test	quantity-unit	Porcine Atria IC25
C[C@H](NC(=O)[C@H](C)N1Cc2c(F)cccc2NC1=O)c1ccc(F)cc1F [Compound B222]	Porcine Atria myofibrils	nM	50
C[C@@H](NC(=O)CN1Cc2cc(F)ccc2NC1=O)c1ccc(C#N)cn1 [Compound B171]	Porcine Atria myofibrils	nM	19790
Cc1cc([C@H](C)NC(=O)CN2Cc3c(ccc(F)c3F)NC2=O)ncc1C#N (single isomer, unassigned) [Compound B35]	Porcine Atria myofibrils	nM	580
N#Cc1cc(F)c2c(c1)OC[C@@H]2NC(=O)CN1C(=O)Nc2cccc(C#N)c2C12CC2 [Compound B304]	Porcine Atria myofibrils	nM	1120
C[C@@H](NC(=O)CN1Cc2c(ccc(F)c2F)NC1=O)c1ccc(C#N)cn1 [Compound B135]	Porcine Atria myofibrils	nM	510
N#Cc1cnc2c(c1)OC[C@H]2NC(=O)CN1C(=O)Nc2cccc(C#N)c2C12CC2 [Compound B310]	Porcine Atria myofibrils	nM	160
C[C@H](NC(=O)CN1Cc2c(ccc(F)c2F)NC1=O)c1nnc2c(Cl)cc(C(F)(F)F)cn12 [Compound B98]	Porcine Atria myofibrils	nM	100000
C[C@@H](NC(=O)CN1C(=O)Nc2ccc(F)c(F)c2C12CC2)c1ncc(C#N)cc1F [Compound B323]	Porcine Atria myofibrils	nM	100
C[C@H](NC(=O)CN1Cc2c(ccc(F)c2F)NC1=O)c1ccc2ncccc2n1 [Compound B287]	Porcine Atria myofibrils	nM	75650
[2H]C1([2H])c2c(ccc(F)c2F)NC(=O)N1CC(=O)N[C@@H](C)c1ncc(C#N)cc1F [Compound B366]	Porcine Atria myofibrils	nM	70
C[C@H](NC(=O)CN1Cc2ccccc2NC1=O)c1ccc(F)cc1F [Compound B249]	Porcine Atria myofibrils	nM	70
CC(C)C[C@@H](C(=O)N[C@@H](C)c1ncc(F)cc1F)N1Cc2c(ccc(F)c2F)NC1=O [Compound B50]	Porcine Atria myofibrils	nM	100000
C[C@H](NC(=O)CN1C(=O)Nc2ccccc2[C@H]1C)c1ncc(F)cc1F [Compound B161]	Porcine Atria myofibrils	nM	4150
Cc1ncc(C#N)nc1[C@@H](C)NC(=O)CN1Cc2c(ccc(F)c2F)NC1=O [Compound B348]	Porcine Atria myofibrils	nM	10170
O=C(CN1Cc2c(ccc(F)c2F)NC1=O)N[C@H]1CS(=O)(=O)c2cc(F)cc(F)c21 [Compound B19]	Porcine Atria myofibrils	nM	100000
Cc1nsc([C@H](C)NC(=O)CN2Cc3c(ccc(F)c3F)NC2=O)n1 [Compound B3]	Porcine Atria myofibrils	nM	34810
O=C(CN1Cc2c(ccc(F)c2F)NC1=O)N[C@H]1COc2cc(F)cnc21 [Compound B7]	Porcine Atria myofibrils	nM	450
C[C@@H](NC(=O)CN1Cc2c(ccc(F)c2F)NC1=O)c1c(F)cncc1F [Compound B103]	Porcine Atria myofibrils	nM	30
CC(C(=O)N[C@@H](C)c1ccc(F)cc1F)N1Cc2ccccc2NC1=O (some centres unmarked) [Compound B243]	Porcine Atria myofibrils	nM	190
C[C@@H](NC(=O)CN1Cc2c(F)cccc2NC1=O)c1ccc(C#N)cc1F [Compound B113]	Porcine Atria myofibrils	nM	160
C[C@@H](NC(=O)CN1Cc2c(ccc(F)c2F)NC1=O)c1ccncc1F [Compound B99]	Porcine Atria myofibrils	nM	700
Cc1ncnc([C@@H](C)NC(=O)CN2Cc3c(ccc(F)c3F)NC2=O)c1F [Compound B343]	Porcine Atria myofibrils	nM	4120
C[C@@H](NC(=O)CN1Cc2c(ccc(F)c2C#N)NC1=O)c1ncc(C#N)cc1F [Compound B131]	Porcine Atria myofibrils	nM	100000
